Attribute: viability, T/C
# System: 323965-272-R-J2-PDC complex spheroid viability
# testDetails: Anticancer human tumor 323965-272-R-J2-PDC patient-derived pancreatic carcinoma cell line growth inhibition [CLK]
# assaySetup: second compound 1 µM; first compound 0.1 µM; stronger effect = lower value

| molecule | viability, T/C |
| --- | --- |
| CC(=O)O[C@H]1C(=O)[C@@]2(C)[C@H]([C@H](OC(=O)c3ccccc3)[C@]3(O)C[C@H](OC(=O)[C@H](O)[C@@H](NC(=O)c4ccccc4)c4ccccc4)C(C)=C1C3(C)C)[C@]1(OC(C)=O)CO[C@@H]1C[C@@H]2O + CN1CCN(c2cc(C(=O)Nc3cc4cc(-c5cnn(C)c5)ccc4cn3)ccn2)CC1 | 3.19% |
| CCN1CCN(Cc2ccc(Nc3ncc(F)c(-c4cc(F)c5nc(C)n(C(C)C)c5c4)n3)nc2)CC1 + CNC(=O)c1ccc(Nc2nc(OC3CCCC3)c3c(-c4ccc5nc(C)oc5c4)c[nH]c3n2)c(OC)c1 | 49.4% |
| COc1c(OCCCN2CCOCC2)ccc2c3n(c(=NC(=O)c4cnc(N)nc4)nc12)CCN3 + CNC(=O)c1ccc(Nc2nc(OC3CCCC3)c3c(-c4ccc5nc(C)oc5c4)c[nH]c3n2)c(OC)c1 | 24.5% |
| O=C(c1cc(Cc2n[nH]c(=O)c3ccccc23)ccc1F)N1CCN(C(=O)C2CC2)CC1 + CN1CCN(c2cc(C(=O)Nc3cc4cc(-c5cnn(C)c5)ccc4cn3)ccn2)CC1 | 7.03% |
| C#Cc1c(F)ccc2cc(O)cc(-c3ncc4c(N5CC6CCC(C5)N6)nc(OCC56CCCN5CC(F)C6)nc4c3F)c12 (stereo not given) + CN1CCN(c2cc(C(=O)Nc3cc4cc(-c5cnn(C)c5)ccc4cn3)ccn2)CC1 | 3.52% |

---

# System: 323965-272-R-J2-PDC complex spheroid viability
# testDetails: Anticancer human tumor 323965-272-R-J2-PDC cell line growth inhibition [CLK];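 note: spheroids exposed to agents for seven days before readout; percent of DMSO vehicle control wells so 100% = untreated growth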
# assaySetup: second compound 1 µM; first compound 0.3 µM; stronger effect = lower value
readout: viability, T/C

| compound | testResult |
| --- | --- |
| NC(=O)C(=Cn1cnc(-c2cc(C(F)(F)F)cc(C(F)(F)F)c2)n1)c1cncnc1 + CN1CCN(c2cc(C(=O)Nc3cc4cc(-c5cnn(C)c5)ccc4cn3)ccn2)CC1 | 2.36% |
| C=CC(=O)Nc1cc(Nc2nccc(-c3cn(C)c4ccccc34)n2)c(OC)cc1N(C)CCN(C)C + CN1CCN(c2cc(C(=O)Nc3cc4cc(-c5cnn(C)c5)ccc4cn3)ccn2)CC1 | 2.38% |
| NC(=O)C(=Cn1cnc(-c2cc(C(F)(F)F)cc(C(F)(F)F)c2)n1)c1cncnc1 + CNC(=O)c1ccc(Nc2nc(OC3CCCC3)c3c(-c4ccc5nc(C)oc5c4)c[nH]c3n2)c(OC)c1 | 42.8% |
| CC(C)CC(NC(=O)C(Cc1ccccc1)NC(=O)c1cnccn1)B(O)O (stereo unspecified) + CN1CCN(c2cc(C(=O)Nc3cc4cc(-c5cnn(C)c5)ccc4cn3)ccn2)CC1 | 1.89% |
| C=CC(=O)Nc1cc(Nc2nccc(-c3cn(C)c4ccccc34)n2)c(OC)cc1N(C)CCN(C)C + CNC(=O)c1ccc(Nc2nc(OC3CCCC3)c3c(-c4ccc5nc(C)oc5c4)c[nH]c3n2)c(OC)c1 | 26.8% |
| CC(C)CC(NC(=O)C(Cc1ccccc1)NC(=O)c1cnccn1)B(O)O (stereo unspecified) + CNC(=O)c1ccc(Nc2nc(OC3CCCC3)c3c(-c4ccc5nc(C)oc5c4)c[nH]c3n2)c(OC)c1 | 1.58% |

---

# Test system: 323965-272-R-J2-PDC complex spheroid viability
# testDetails: Anticancer human tumor 323965-272-R-J2-PDC cell line growth inhibition [CLK]; active = viability on the fitted dose curve at most 10% of control; inactive = the rest;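 note: spheroids exposed to agents for seven days before readout; percent of DMSO vehicle control wells so 100% = untreated growth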
# assaySetup: second compound 10 µM; first compound 1 µM
Outcome codes: yes = active, no = inactive

| compound | label |
| --- | --- |
| Nc1ccn(C2OC(CO)C(O)C2(F)F)c(=O)n1 (stereo not given) + CNC(=O)c1ccc(Nc2nc(OC3CCCC3)c3c(-c4ccc5nc(C)oc5c4)c[nH]c3n2)c(OC)c1 | no |
| CCCS(=O)(=O)Nc1ccc(F)c(C(=O)c2c[nH]c3ncc(-c4ccc(Cl)cc4)cc23)c1F + CN1CCN(c2cc(C(=O)Nc3cc4cc(-c5cnn(C)c5)ccc4cn3)ccn2)CC1 | yes |
| CC(CO)NC(=O)c1cc(-c2ccc(Cl)cc2)nn(-c2cnn(C)c2)c1=O (stereo not given) + CNC(=O)c1ccc(Nc2nc(OC3CCCC3)c3c(-c4ccc5nc(C)oc5c4)c[nH]c3n2)c(OC)c1 | no |
| COc1ccc([C@@H](O)c2cc(-c3ncnc4cc(N5CCOCC5)ccc34)c(F)cc2Cl)nn1 + CNC(=O)c1ccc(Nc2nc(OC3CCCC3)c3c(-c4ccc5nc(C)oc5c4)c[nH]c3n2)c(OC)c1 | no |
| C=C(F)C(=O)N1CCN(c2nc(OCC3CCCN3C)nc3c2CCN(c2cccc4cccc(Cl)c24)C3)CC1CC#N (stereo not given) + CN1CCN(c2cc(C(=O)Nc3cc4cc(-c5cnn(C)c5)ccc4cn3)ccn2)CC1 | yes |
| COc1cccc2c1C(=O)c1c(O)c3c(c(O)c1C2=O)CC(O)(C(=O)CO)CC3OC1CC(N)C(O)C(C)O1 (stereo not given) + CNC(=O)c1ccc(Nc2nc(OC3CCCC3)c3c(-c4ccc5nc(C)oc5c4)c[nH]c3n2)c(OC)c1 | no |
| COc1cccc2c1C(=O)c1c(O)c3c(c(O)c1C2=O)CC(O)(C(=O)CO)CC3OC1CC(N)C(O)C(C)O1 (stereo not given) + CN1CCN(c2cc(C(=O)Nc3cc4cc(-c5cnn(C)c5)ccc4cn3)ccn2)CC1 | yes |
| O=C(c1cc(Cc2n[nH]c(=O)c3ccccc23)ccc1F)N1CCN(C(=O)C2CC2)CC1 + CN1CCN(c2cc(C(=O)Nc3cc4cc(-c5cnn(C)c5)ccc4cn3)ccn2)CC1 | yes |
| CC(=O)O[C@H]1C(=O)[C@@]2(C)[C@H]([C@H](OC(=O)c3ccccc3)[C@]3(O)C[C@H](OC(=O)[C@H](O)[C@@H](NC(=O)c4ccccc4)c4ccccc4)C(C)=C1C3(C)C)[C@]1(OC(C)=O)CO[C@@H]1C[C@@H]2O + CN1CCN(c2cc(C(=O)Nc3cc4cc(-c5cnn(C)c5)ccc4cn3)ccn2)CC1 | yes |
| COc1ccc([C@@H](O)c2cc(-c3ncnc4cc(N5CCOCC5)ccc34)c(F)cc2Cl)nn1 + CN1CCN(c2cc(C(=O)Nc3cc4cc(-c5cnn(C)c5)ccc4cn3)ccn2)CC1 | yes |

---

# System: 323965-272-R-J2-PDC complex spheroid viability
# testDetails: Anticancer human tumor 323965-272-R-J2-PDC cell line growth inhibition [CLK]; active = viability on the fitted dose curve at most 10% of control; inactive = the rest;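 note: spheroids exposed to agents for seven days before readout; percent of DMSO vehicle control wells so 100% = untreated growth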
# assaySetup: second compound 0.0316 µM; first compound 0.03 µM
Outcome codes: active, inactive

| compound | label |
| --- | --- |
| C=CC(=O)Nc1cc(Nc2nccc(-c3cn(C)c4ccccc34)n2)c(OC)cc1N(C)CCN(C)C + CNC(=O)c1ccc(Nc2nc(OC3CCCC3)c3c(-c4ccc5nc(C)oc5c4)c[nH]c3n2)c(OC)c1 | inactive |
| CC(C)CC(NC(=O)C(Cc1ccccc1)NC(=O)c1cnccn1)B(O)O (stereo unspecified) + CNC(=O)c1ccc(Nc2nc(OC3CCCC3)c3c(-c4ccc5nc(C)oc5c4)c[nH]c3n2)c(OC)c1 | active |
| CC(C)CC(NC(=O)C(Cc1ccccc1)NC(=O)c1cnccn1)B(O)O (stereo unspecified) + CN1CCN(c2cc(C(=O)Nc3cc4cc(-c5cnn(C)c5)ccc4cn3)ccn2)CC1 | active |
| NC(=O)C(=Cn1cnc(-c2cc(C(F)(F)F)cc(C(F)(F)F)c2)n1)c1cncnc1 + CN1CCN(c2cc(C(=O)Nc3cc4cc(-c5cnn(C)c5)ccc4cn3)ccn2)CC1 | inactive |
| C=CC(=O)Nc1cc(Nc2nccc(-c3cn(C)c4ccccc34)n2)c(OC)cc1N(C)CCN(C)C + CN1CCN(c2cc(C(=O)Nc3cc4cc(-c5cnn(C)c5)ccc4cn3)ccn2)CC1 | inactive |
| NC(=O)C(=Cn1cnc(-c2cc(C(F)(F)F)cc(C(F)(F)F)c2)n1)c1cncnc1 + CNC(=O)c1ccc(Nc2nc(OC3CCCC3)c3c(-c4ccc5nc(C)oc5c4)c[nH]c3n2)c(OC)c1 | inactive |

---

Catalogue of viability, T/C values
# Tested on: 323965-272-R-J2-PDC complex spheroid viability
# testDetails: Anticancer human tumor 323965-272-R-J2-PDC cell line growth inhibition [CLK];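 note: spheroids exposed to agents for seven days before readout; percent of DMSO vehicle control wells so 100% = untreated growth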
# assaySetup: second compound 3.16 µM; first compound 0.0316 µM; stronger effect = lower value
readout: viability, T/C

| compound | readout | testResult |
| --- | --- | --- |
| C=C(F)C(=O)N1CCN(c2nc(OCC3CCCN3C)nc3c2CCN(c2cccc4cccc(Cl)c24)C3)CC1CC#N (stereo unspecified) + CNC(=O)c1ccc(Nc2nc(OC3CCCC3)c3c(-c4ccc5nc(C)oc5c4)c[nH]c3n2)c(OC)c1 | viability, T/C | 26.2% |
| C#Cc1c(F)ccc2cc(O)cc(-c3ncc4c(N5CC6CCC(C5)N6)nc(OCC56CCCN5CC(F)C6)nc4c3F)c12 (stereo unspecified) + CN1CCN(c2cc(C(=O)Nc3cc4cc(-c5cnn(C)c5)ccc4cn3)ccn2)CC1 | viability, T/C | 3.72% |
| O=c1[nH]cc(F)c(=O)[nH]1 + CN1CCN(c2cc(C(=O)Nc3cc4cc(-c5cnn(C)c5)ccc4cn3)ccn2)CC1 | viability, T/C | 4.71% |
| O=C(c1cc(Cc2n[nH]c(=O)c3ccccc23)ccc1F)N1CCN(C(=O)C2CC2)CC1 + CN1CCN(c2cc(C(=O)Nc3cc4cc(-c5cnn(C)c5)ccc4cn3)ccn2)CC1 | viability, T/C | 5.15% |
| O=c1[nH]cc(F)c(=O)[nH]1 + CNC(=O)c1ccc(Nc2nc(OC3CCCC3)c3c(-c4ccc5nc(C)oc5c4)c[nH]c3n2)c(OC)c1 | viability, T/C | 40.6% |
| Nc1ccn(C2OC(CO)C(O)C2(F)F)c(=O)n1 (stereo unspecified) + CNC(=O)c1ccc(Nc2nc(OC3CCCC3)c3c(-c4ccc5nc(C)oc5c4)c[nH]c3n2)c(OC)c1 | viability, T/C | 25.6% |

Taken from PubChem BioAssay AID2060619.
